B1: LOC100129726 (parent)
chain: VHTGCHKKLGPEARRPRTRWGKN

Variants of: B1
Measurement Protocol: protein stability index of a GFP-peptide fusion (GPS, HEK-293T) (PSI 1-6); higher = more stable;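 note: lentivirally expressed fusions sorted by FACS into six bins by GFP to DsRed ratio, PSI derived from sequencing read proportions per bin multiplied by bin number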
Condition Description: c terminus: native
Class membership depends on protein stability index alone; the intervals are low = under 2, mid = from 2 up to 3, high = 3 and over

# bin label for N23D
mid

# bin label for G4M
mid

# bin label for H2R
high

# bin label for T3D
high

# bin label for G10L
low

# bin label for R15Y
mid

# bin label for R14C
mid

# bin label for H6T
low

# bin label for K8Q
mid

# bin label for G21I
mid

# bin label for P11F
mid

# bin label for T18Y
mid

# bin label for P11S
low

# bin label for W20A
high
